Test: Single-dose pharmacokinetic study on rat
Format: in vivo, SD rats
Settings: male, SD, plasma, IV: 1 mg/kg PO: 2 mg/kg, read-out: Clearance rate
property label: clearance (mL/min/kg)
Numbers only, in mL/min/kg.

Item `COCCCOc1cc2c(cc1OC)-c1cc(=O)c(C(=O)O)cn1[C@H](C(C)(C)C)CO2` has what recorded clearance?
28.1

====

Target: CYP2D6 (Homo sapiens)
Sequence (P10635 whole entry): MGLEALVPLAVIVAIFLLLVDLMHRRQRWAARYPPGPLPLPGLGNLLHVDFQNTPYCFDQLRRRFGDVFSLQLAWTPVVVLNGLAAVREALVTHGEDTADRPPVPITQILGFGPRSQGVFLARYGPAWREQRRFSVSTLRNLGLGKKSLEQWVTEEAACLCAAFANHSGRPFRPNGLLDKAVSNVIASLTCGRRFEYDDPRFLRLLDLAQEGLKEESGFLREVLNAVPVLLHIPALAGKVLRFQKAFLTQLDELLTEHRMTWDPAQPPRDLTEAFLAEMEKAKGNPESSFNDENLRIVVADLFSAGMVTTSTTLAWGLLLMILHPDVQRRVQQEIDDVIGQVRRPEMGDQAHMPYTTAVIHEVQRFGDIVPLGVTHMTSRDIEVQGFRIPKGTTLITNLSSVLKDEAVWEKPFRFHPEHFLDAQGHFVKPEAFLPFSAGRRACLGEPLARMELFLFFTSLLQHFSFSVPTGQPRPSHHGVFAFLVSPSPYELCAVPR
pIC50: −log10 of the molar value.
property label: pIC50

Form: Entry = `COCCCOc1cc2c(cc1OC)-c1cc(=O)c(C(=O)O)cn1[C@H](C(C)(C)C)CO2` | System = CYP2D6 (Homo sapiens) | pIC50 = ____
< 4.30

Hey, just so you know, these numbers are from patent US20200197409A1.
